Reported hGLP1R cAMP Rel EC50 values are given for each entry in this list.
# TEST SYSTEM: human GLP-1 receptor (GLP-1R) (human, UniProt P43220 24-463)
# MEASUREMENT NOTES: cell-based or functional assay
Numbered stars: 1 amine (or outer) side, 2 acyl side, 3 side chain; on linkers, the order of the positions; unused ones are H or OH. Square brackets hold non-standard residues; d marks the D form. Side chains are listed from the residue outwards. Ends that are not written are not given here. * marks the point of attachment. C20 diacid = O=C(O)CCCCCCCCCCCCCCCCCCC(=O)*; αMePhe(2-F) = C[C@](N)(Cc1ccccc1F)C(=O)O; γGlu = O=C(O)[C@H](CCC(=O)[*:2])N[*:1]; Desaminotyrosyl = O=C(CCc1ccc(O)cc1)*; AEEA = NCCOCCOCC(=O)O; Aib = CC(C)(N)C(=O)O

| BINDER | hGLP1R cAMP Rel EC50 [nM] |
| --- | --- |
| YXEGTXTSDHSIXLDEKAQXTFIXYLIEGGPSSGAPPPS (Y-Aib-EGT-αMeF(2F)-TSDHSI-αMeF-LDEK((2-[2-(2-Amino-ethoxy)-ethoxy]-acetyl)2-(γ-Glu)-CO-(CH2)16-CO2H)AQ-Aib-TFI-(D-Glu)-YLIEGGPSSGAPPPS-NH2) [Example 169] | 3.37 |
| YXEGTXTSDHSIXLDEKAQXHFIXYLIEGGPSSGAPPPS (Y-Aib-EGT-αMeF(2F)-TSDHSI-αMeF-LDEK((2-[2-(2-Amino-ethoxy)-ethoxy]-acetyl)2-(γ-Glu)-CO-(CH2)14-CO2H)AQ-Aib-HFI-(D-Glu)-YLIEGGPSSGAPPPS-NH2) [Example 178] | 13.1 |
| YXEGTXTSDXSILLDXKAQXEFIXYLIEGGPSSGAPPPS (Y-Aib-EGT-αMeF(2F)-TSD-4Pal-SILLD-Dab-K((2-[2-(2-Amino-ethoxy)-ethoxy]-acetyl)2-(γ-Glu)-CO-(CH2)16-CO2H)AQ-Aib-EFI-(D-Glu)-YLIEGGPSSGAPPPS-NH2) [Example 234] | 0.0926 |
| [Desaminotyrosyl]AEGTFTSDYSILLDEK([AEEA-AEEA-γGlu-C20 diacid])AQQAFIEYLIEGGPSSGAPPPS-NH2 [Example 200] | 0.0818 |
| Y[Aib]EGT[αMePhe(2-F)]TSDYSIXLDEKAQ[Aib]EFIHYLIEGGPSSGAPPPS-NH2 (not fully specified (residues 13, 17); printed as Y-Aib-EGT-αMeF(2F)-TSDYSI-αMeF-LDEK((2-[2-(2-Amino-ethoxy)-ethoxy]-acetyl)2-(γ-Glu)-CO-(CH2)18-CO2H)AQ-Aib-EFIHYLIEGGPSSGAPPPS-NH2) [Example 153] | 0.0904 |
| YXEGTXTSDLSILLDKKAQXAFIEYLIEGGPSSGAPPPS (Y-Aib-EGT-αMeF-TSDLSILLDKK((2-[2-(2-Amino-ethoxy)-ethoxy]-acetyl)2-(γ-Glu)-CO-(CH2)18-CO2H)AQ-Aib-AFIEYLIEGGPSSGAPPPS-NH2) [Example 129] | 0.121 |

Cited source for all entries: patent US20220048967A1
